Measured pIC50 values are reported for all entries that follow.
# target-or-system: IL-23 mediated signalling (Homo sapiens, UniProt Q5VWK5)
# Sequence (Q5VWK5 24-629 limits assumed): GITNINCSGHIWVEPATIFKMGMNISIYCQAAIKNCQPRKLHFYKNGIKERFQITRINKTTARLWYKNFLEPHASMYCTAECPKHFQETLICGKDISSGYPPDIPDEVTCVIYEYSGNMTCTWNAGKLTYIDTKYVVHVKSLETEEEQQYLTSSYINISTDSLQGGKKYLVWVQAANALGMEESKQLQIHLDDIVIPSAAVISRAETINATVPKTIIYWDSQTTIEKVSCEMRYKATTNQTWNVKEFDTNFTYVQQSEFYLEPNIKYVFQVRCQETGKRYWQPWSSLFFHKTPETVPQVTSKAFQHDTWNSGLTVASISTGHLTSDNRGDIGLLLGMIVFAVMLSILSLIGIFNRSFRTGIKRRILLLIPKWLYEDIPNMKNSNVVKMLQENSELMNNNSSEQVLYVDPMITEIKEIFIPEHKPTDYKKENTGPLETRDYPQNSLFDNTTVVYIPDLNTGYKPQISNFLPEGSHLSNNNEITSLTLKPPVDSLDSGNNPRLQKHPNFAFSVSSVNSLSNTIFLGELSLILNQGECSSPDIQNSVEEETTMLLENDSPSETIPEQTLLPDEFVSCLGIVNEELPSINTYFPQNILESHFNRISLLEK
# protocol-text: Functional inhibition of IL-23 mediated STAT3 signalling (phospho-STAT3 MSD) in DB cells
# Type: cell-based
# run-parameters: Table 3-2; DB cells, hIL-23 at EC80; read-out: hIL-23 (pSTAT3) antagonist IC50
*1 amine or outer side, *2 acyl side, *3 side chain or, on linkers, in order; H or OH if unused. Where a SMILES comes first, the peptide text is derived from it. Bridges are numbered along the chain shown (N, C = ends). [ ]: non-standard residue; d: D form. 2Nal = N[C@@H](Cc1ccc2ccccc2c1)C(=O)O; AEF = NCCOc1ccc(C[C@H](N)C(=O)O)cc1; X1 = O=C(Cc1ccc(CN[*:1])cc1)[*:2]; αMeL = CC(C)C[C@](C)(N)C(=O)O; CH2COCH2 = O=C(C[*:1])C[*:2]
// returns pIC50 (minus log10 of molar concentration), number only

The examples below pair each entry with its known result.
compound	pIC50
CC(C)C[C@]1(C)NC(=O)[C@H](Cc2ccc3ccccc3c2)NC(=O)[C@H](Cc2ccc(OCCN)cc2)NC(=O)[C@@H]2CSCC(=O)CSC[C@H](NC(=O)[C@H](CO)NC(=O)Cc3ccc(cc3)CNC(=O)CC[C@@H](C(=O)N[C@@H](CO)C(N)=O)NC1=O)C(=O)N[C@@H](Cc1c[nH]c3ccccc13)C(=O)N[C@@H](CCC(N)=O)C(=O)N2 [Ref 81, reference compound]	7.68
CC(C)C[C@]1(C)NC(=O)[C@H](Cc2ccc3ccccc3c2)NC(=O)[C@H](Cc2ccc(OCCN)cc2)NC(=O)[C@@H]2CSCC(=O)CSC[C@H](NC(=O)[C@H](CO)NC(=O)Cc3ccc(cc3)CNC(=O)CC[C@@H](C(=O)N[C@@H](CCCNC(=N)N)C(N)=O)NC1=O)C(=O)N[C@@H](Cc1c[nH]c3ccccc13)C(=O)N[C@@H](CCC(N)=O)C(=O)N2 [Ref 52, reference compound] ([X1]SCWQC[AEF][2Nal][αMeL]ER-NH2; linker 3-6 via CH2COCH2; lactam N-10)	8.11
CC(=O)N[C@@H](CC(=O)O)C(=O)N[C@H]1CCC(=O)NCCCC[C@@H](C(=O)N[C@@H](CCCNC(=N)N)C(N)=O)NC(=O)[C@H](CC(C)C)NC(=O)[C@H](Cc2ccc3ccccc3c2)NC(=O)[C@H](Cc2c[nH]c3ccccc23)NC(=O)[C@@H]2CSCC(=O)CSC[C@H](NC(=O)[C@H](CO)NC1=O)C(=O)N[C@@H](Cc1c[nH]c3ccccc13)C(=O)N[C@@H](CCC(N)=O)C(=O)N2 [Ref 17, reference compound]	6.43

Next item in the queue.
Challenge: Give the reported pIC50 for CC[C@H](C)[C@@H]1NC(=O)[C@@H]2CCCCNC(=O)CC[C@@H](C(=O)N[C@@H](CCN)C(=O)N[C@@H](Cc3cccnc3)C(N)=O)NC(=O)C(C)(C)NC(=O)[C@H](Cc3ccc4ccccc4c3)NC(=O)[C@H](Cc3ccc(C)cc3)NC(=O)[C@H](CCC(=O)N2)NC(=O)[C@H](CCC(N)=O)NC(=O)[C@H](Cc2c[nH]c3ccccc23)NC(=O)[C@H](C(C)C)NC1=O [Compound 17] (system: IL-23 mediated signalling (Homo sapiens, UniProt Q5VWK5)).
Response given: 8.54
